Numbers sourced from patent US20200031825A1.

target: hSTING-wt (Homo sapiens, UniProt Q86WV6); assay: Cellular Functional Assay I: ISRE-SEAP reporter in HEK-293T-Dual Null cells transfected with hSTING-wt; settings: HEK-293T-Dual Null, hSTING-wt
Sequence (Q86WV6 whole entry H232R): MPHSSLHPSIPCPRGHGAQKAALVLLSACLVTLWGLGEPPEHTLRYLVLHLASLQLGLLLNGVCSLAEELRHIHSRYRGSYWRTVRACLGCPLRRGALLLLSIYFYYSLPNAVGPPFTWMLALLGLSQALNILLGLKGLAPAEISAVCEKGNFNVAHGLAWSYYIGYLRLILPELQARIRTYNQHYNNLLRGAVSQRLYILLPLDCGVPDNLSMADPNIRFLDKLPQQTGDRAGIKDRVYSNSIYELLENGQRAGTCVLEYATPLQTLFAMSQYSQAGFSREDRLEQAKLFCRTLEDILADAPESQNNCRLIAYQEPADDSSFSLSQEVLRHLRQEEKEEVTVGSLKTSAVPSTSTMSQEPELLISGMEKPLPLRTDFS
pEC50: −log10 of the molar value.
The following compounds are shown together with reported pEC50 values.
Readout: pEC50

# Molecule Smiles, Result
rows = [
    ("CCn1nc(C)cc1C(=O)Nc1nc2cc(C(N)=O)ccc2n1C/C=C/Cn1c(NC(=O)c2cc(C)nn2CC)nc2cc(C(N)=O)sc21", "6.30 to 9.00"),
    ("CCn1nc(C)cc1C(=O)Nc1nc2cc(C(N)=O)cnc2n1C/C=C/Cn1c(NC(=O)c2cc(C)nn2CC)nc2cc(C(N)=O)cnc21", "6.30 to 9.00"),
    ("CCn1nc(C)cc1C(=O)Nc1nc2cc(C(N)=O)cnc2n1C/C=C/Cn1c(NC(=O)c2cc(C)nn2CC)nc2cc(C(N)=O)cc(OCCCN(C)CCOC)c21", "6.30 to 9.00"),
    ("CCn1nc(C)cc1C(=O)Nc1nc2cc(C(N)=O)cnc2n1C/C=C/Cn1c(NC(=O)c2cc(C)nn2CC)nc2cc(C(N)=O)cc(C)c21.Cl.Cl.Cl.Cl", "> 9.00"),
    ("[2H]C1([2H])OC([2H])([2H])C([2H])([2H])N(CCCOc2cc(C(N)=O)cc3nc(NC(=O)c4cc(C)nn4CC)n(C/C=C/Cn4c(NC(=O)c5cc(C)nn5CC)nc5cc(C(N)=O)cnc54)c23)C1([2H])[2H]", "6.30 to 9.00"),
    ("CCn1nc(C)cc1C(=O)Nc1nc2cc(C(N)=O)cnc2n1C/C=C/Cn1c(NC(=O)c2cc(C)nn2CC)nc2cc(C(N)=O)cc(OCCCN3CCN(C(C)=O)CC3)c21", "6.30 to 9.00"),
    ("CCn1nc(C)cc1C(=O)Nc1nc2cc(C(N)=O)sc2n1C/C=C/Cn1c(NC(=O)c2cc(C)nn2CC)nc2cc(C(N)=O)cc(OCCCN(C)C)c21", "6.30 to 9.00"),
    ("CCn1nc(C)cc1C(=O)Nc1nc2cc(C(N)=O)cnc2n1C/C=C/Cn1c(NC(=O)c2cc(C)nn2CC)nc2cc(C(N)=O)cc(OC)c21", "> 9.00"),
    ("CCn1nc(C)cc1C(=O)Nc1nc2cc(C(N)=O)cnc2n1C/C=C/Cn1c(NC(=O)c2cc(C)nn2CC)nc2cc(C(N)=O)cc(OCCCN(C)C)c21", "6.30 to 9.00"),
    ("CCn1nc(C)cc1C(=O)Nc1nc2cc(C(N)=O)cnc2n1CCCCNC(=O)OC(C)(C)C", "< 6.30"),
    ("CCn1nc(C)cc1C(=O)Nc1nc2cc(C(N)=O)cnc2n1C/C=C/Cn1c(NC(=O)c2cc(C)nn2CC)nc2cc(C(N)=O)cc(OCCCO)c21", "6.30 to 9.00"),
    ("CCn1nc(C)cc1C(=O)Nc1nc2cc(C(N)=O)cnc2n1C/C=C/CNC(=O)OCc1ccccc1", "< 6.30"),
]
